subject of test: PfRH5 of Plasmodium falciparum strain Dd2 (on live parasites) (Plasmodium falciparum)
protocol description: cell-based or functional assay
metric: Max growth inhibition (%) Dd2

binder: H1H29109P (antibody, V domains shown) VH: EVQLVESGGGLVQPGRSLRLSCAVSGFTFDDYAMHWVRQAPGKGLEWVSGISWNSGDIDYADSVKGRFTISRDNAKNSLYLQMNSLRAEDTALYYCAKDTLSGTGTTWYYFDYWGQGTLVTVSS VL: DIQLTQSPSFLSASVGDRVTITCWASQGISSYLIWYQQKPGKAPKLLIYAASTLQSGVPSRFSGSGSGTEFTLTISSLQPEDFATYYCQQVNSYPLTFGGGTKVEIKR
metric: Max growth inhibition (%) Dd2
meas value: 42%
//
binder: H1H29125P (antibody, V domains shown) VH: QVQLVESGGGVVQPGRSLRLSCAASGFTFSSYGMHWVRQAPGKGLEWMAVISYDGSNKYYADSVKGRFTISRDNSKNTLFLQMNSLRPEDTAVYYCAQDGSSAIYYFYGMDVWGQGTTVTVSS VL: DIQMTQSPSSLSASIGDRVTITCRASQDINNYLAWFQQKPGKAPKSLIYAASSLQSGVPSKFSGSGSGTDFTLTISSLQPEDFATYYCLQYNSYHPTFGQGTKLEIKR
metric: Max growth inhibition (%) Dd2
meas value: 51.4%

// moving on: another record for Max growth inhibition (%) Dd2
State, in one line, measured Max growth inhibition (%) Dd2 of H1H29104P (antibody, V domains shown) VH: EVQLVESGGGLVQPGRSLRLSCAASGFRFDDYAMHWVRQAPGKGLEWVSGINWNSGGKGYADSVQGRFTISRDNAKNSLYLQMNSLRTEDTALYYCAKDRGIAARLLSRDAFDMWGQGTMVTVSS VL: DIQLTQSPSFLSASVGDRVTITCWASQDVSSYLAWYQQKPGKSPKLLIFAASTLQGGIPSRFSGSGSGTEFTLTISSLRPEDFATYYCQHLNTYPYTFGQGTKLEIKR
61.3%
